# experimental.system: full length p300 (Homo sapiens (Human), UniProt Q09472)
# Sequence (Q09472 whole entry): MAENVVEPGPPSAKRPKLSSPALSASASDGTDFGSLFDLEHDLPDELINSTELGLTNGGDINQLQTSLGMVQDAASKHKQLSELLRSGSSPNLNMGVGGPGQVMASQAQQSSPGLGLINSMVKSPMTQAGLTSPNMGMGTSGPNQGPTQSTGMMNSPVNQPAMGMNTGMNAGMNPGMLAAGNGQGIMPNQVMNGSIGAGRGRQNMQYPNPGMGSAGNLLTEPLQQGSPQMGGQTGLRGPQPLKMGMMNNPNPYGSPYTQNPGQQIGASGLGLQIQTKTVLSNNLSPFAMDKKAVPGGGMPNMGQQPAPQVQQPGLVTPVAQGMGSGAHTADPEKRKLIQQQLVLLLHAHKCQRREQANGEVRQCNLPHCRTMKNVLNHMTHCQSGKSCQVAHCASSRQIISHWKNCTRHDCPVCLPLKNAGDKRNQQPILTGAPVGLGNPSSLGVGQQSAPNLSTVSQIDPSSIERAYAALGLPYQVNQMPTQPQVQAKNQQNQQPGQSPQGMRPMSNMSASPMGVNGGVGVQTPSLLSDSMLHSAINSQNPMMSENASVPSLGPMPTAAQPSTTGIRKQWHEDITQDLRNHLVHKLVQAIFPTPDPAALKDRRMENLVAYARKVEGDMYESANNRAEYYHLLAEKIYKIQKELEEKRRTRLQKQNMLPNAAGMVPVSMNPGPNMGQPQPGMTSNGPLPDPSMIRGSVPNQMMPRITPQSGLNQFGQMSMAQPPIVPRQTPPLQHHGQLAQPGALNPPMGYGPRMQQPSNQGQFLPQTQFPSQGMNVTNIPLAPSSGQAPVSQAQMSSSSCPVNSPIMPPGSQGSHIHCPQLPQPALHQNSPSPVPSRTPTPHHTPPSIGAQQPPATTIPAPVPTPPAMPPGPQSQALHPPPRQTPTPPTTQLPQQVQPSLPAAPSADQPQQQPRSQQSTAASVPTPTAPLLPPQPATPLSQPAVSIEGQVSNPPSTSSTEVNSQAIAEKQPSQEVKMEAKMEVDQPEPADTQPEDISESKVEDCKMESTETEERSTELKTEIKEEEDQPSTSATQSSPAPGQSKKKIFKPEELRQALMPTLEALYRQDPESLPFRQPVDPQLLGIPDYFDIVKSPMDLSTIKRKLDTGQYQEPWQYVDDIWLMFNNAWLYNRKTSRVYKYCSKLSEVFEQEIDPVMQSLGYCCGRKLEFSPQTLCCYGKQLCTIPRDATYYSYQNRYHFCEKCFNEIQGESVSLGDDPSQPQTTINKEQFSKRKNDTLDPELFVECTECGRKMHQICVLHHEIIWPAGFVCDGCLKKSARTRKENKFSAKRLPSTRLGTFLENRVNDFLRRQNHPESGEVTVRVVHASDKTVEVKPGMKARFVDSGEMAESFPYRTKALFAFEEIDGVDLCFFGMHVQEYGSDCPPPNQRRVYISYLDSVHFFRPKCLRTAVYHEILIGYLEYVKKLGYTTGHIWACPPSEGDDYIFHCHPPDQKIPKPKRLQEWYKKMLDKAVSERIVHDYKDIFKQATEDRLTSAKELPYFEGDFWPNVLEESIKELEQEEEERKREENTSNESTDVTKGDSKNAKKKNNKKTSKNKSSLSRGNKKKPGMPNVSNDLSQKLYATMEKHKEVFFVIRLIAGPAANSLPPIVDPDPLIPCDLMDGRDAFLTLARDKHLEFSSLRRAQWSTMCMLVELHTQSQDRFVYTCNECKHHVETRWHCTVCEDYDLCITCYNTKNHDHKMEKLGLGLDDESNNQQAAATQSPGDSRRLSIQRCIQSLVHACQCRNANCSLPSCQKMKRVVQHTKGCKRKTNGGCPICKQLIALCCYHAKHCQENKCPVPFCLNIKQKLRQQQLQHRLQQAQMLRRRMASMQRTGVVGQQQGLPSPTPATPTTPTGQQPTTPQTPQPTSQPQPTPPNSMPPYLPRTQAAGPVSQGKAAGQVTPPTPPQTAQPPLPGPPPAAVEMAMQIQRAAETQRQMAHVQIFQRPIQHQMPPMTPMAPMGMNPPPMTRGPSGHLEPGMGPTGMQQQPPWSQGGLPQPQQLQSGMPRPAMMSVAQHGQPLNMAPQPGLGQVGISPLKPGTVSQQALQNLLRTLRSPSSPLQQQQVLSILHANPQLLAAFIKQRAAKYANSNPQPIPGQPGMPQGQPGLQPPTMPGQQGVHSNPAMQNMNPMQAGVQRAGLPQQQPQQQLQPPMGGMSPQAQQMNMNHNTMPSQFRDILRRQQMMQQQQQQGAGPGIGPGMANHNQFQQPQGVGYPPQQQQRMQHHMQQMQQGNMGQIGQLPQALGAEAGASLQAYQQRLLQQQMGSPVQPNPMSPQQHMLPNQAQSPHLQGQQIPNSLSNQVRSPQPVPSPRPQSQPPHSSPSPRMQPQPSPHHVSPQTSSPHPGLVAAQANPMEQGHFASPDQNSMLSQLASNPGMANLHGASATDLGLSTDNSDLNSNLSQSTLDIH
metric: IC50 (nM)

compound	unit.text	observed.measurement
NS(=O)(=O)c1ccc(CCNC(C(=O)c2c[nH]c3c(Cl)cccc23)c2ccccc2)cc1 (single isomer, unassigned) [15 Isomer 2]	nM	81.2

I = NS(=O)(=O)c1ccc(CCNC(C(=O)c2c[nH]c3cccc(Cl)c23)c2ccccc2)cc1 (single isomer, unassigned) [12 Isomer 2]
II = CC(CNC(C(=O)c1cnn2cc(-c3cnn(C)c3)ccc12)c1ccccc1)c1ccc(C#N)cc1 (single isomer, unassigned) [102 Isomer 4]
*Q* Between I and II , which one shows the smaller IC50 number? Answer with the label corresponding to your selection.
*A* II
(II: 0.818 nM, I: 3940 nM)

P = COc1ccc2c(C(=O)C(NCCc3ccc(S(N)(=O)=O)cc3)c3ccccc3)c[nH]c2c1 (single isomer, unassigned) [51 Isomer 2]
Q = O=C(c1c[nH]c2ccccc12)C(NCCc1ccc(Cl)cc1)c1cccnc1 (racemic) [43 Racemic]
*Q* Returns: the argument ( P or Q ) having the larger IC50. Answer with the label corresponding to your selection.
*A* Q
(Q: 145 nM, P: 25.5 nM)

###

# experimental.system: p300 HAT domain (residues 1287-1666) (Homo sapiens (Human), UniProt Q09472)
# Sequence (Q09472 1287-1666): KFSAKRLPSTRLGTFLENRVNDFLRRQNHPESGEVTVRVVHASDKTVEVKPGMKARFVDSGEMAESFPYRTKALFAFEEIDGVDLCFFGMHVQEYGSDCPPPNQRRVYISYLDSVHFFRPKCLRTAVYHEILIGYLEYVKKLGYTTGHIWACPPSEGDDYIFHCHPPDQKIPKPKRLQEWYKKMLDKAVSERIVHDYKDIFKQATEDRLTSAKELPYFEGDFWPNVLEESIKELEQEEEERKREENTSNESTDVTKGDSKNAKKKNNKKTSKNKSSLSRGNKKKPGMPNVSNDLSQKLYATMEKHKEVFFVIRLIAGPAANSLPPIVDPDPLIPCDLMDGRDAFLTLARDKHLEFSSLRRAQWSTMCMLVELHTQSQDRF
# measurement.notes: p300 HAT SPA assay (scintillation proximity assay, acetylation of biotinylated H3(1-21) peptide)
# Assay type: biochemical
# reported.conditions: p300 HAT domain; average of at least 2 replicate titrations; read-out: P300 HAT SPA IC50
pIC50: −log10 of the molar value.
metric: pIC50

Below: 3 compounds and their reported pIC50.
compound	observed.measurement
Cn1cc(-c2ccc3c(C(=O)C(NCCc4ccc(C#N)cc4)c4ccccc4)c[nH]c3c2F)cn1 (single isomer, unassigned) [103 Isomer 2]	6.93
N#Cc1ccc(CCNC(C(=O)c2c[nH]c3cc(C(=O)NCCN4CCCC4=O)ccc23)c2ccccc2)cc1 (single isomer, unassigned) [164 Isomer 1]	5.44
CC(CNC(C(=O)c1c[nH]c2cc(-c3cnn(C)c3)ccc12)c1ccccc1)c1ccc(Cl)cc1 (single isomer, unassigned) [91 Isomer 3]	5.19

I = CC(Cc1ccc(Cl)cc1Cl)NC(C(=O)c1c[nH]c2cc(-c3cnn(C)c3)ccc12)c1ccccc1 (single isomer, unassigned) [97 Isomer 4]
II = O=C(c1c[nH]c2ccccc12)C(NCCc1ccc(Cl)c(Cl)c1)c1ccccc1 (single isomer, unassigned) [20 Isomer 2]
*Q* Returns: the argument ( I or II ) having the larger pIC50. Answer with the label corresponding to your selection.
*A* II

###

# experimental.system: p300 HAT domain (residues 1287-1666) (Homo sapiens (Human))
# measurement.notes: p300 HAT SPA assay (scintillation proximity assay, acetylation of biotinylated H3(1-21) peptide)
# Format: biochemical
# reported.conditions: p300 HAT domain; average of at least 2 replicate titrations; read-out: P300 HAT SPA IC50
pIC50: −log10 of the molar value.
metric: pIC50

A = CNC(=O)Cn1cc(-c2ccc3c(C(=O)C(NCCc4ccc(Cl)cc4)c4ccccc4)c[nH]c3c2)cn1 (single isomer, unassigned) [87 Isomer 2]
B = COCCNc1ccc(CCNC(C(=O)c2c[nH]c3ccccc23)c2ccccc2)cn1 (single isomer, unassigned) [54 Isomer 2]
C = Cc1ncc(-c2ccc3c(C(=O)C(NCCc4ccc(Cl)cc4)c4ccccc4)c[nH]c3c2)[nH]1 (single isomer, unassigned) [110 Isomer 1]
*Q* I'd appreciate it if you sorted the entries above by their pIC50, lowest to highest. # answer = labels listed in requested order
*A* B, C, A
(B: 4.80, C: 5.70, A: 6.70)
